- Test system: Hepatitis B virus
- Test Description: Antiviral activity against Hepatitis B virus infected in human HepG2.2.15 cells assessed as cell survival at 75 uM after 9 days (reference value: 100%)
- Format: functional
- Test Conditions: HepG2 2.2.15, 216 h
Readings of viability at 75 µM for the listed compounds
Write the answer as a number in %, unit excluded.

These solved cases illustrate the format of a correct answer.
COc1cc(/C=C/C(=O)O/N=C/c2ccccn2)cc2c1OCO2; 94.2
COc1cc(/C=C/C(=O)O/N=C/c2cccs2)cc2c1OCO2; 107

Input line: Please look at O=C(/C=C/c1ccc2c(c1)OCO2)O/N=C/c1cccs1 and tell me its recorded viability at 75 µM on Hepatitis B virus.
Output line: 105

Input line: Please look at COc1ccc(/C=C/C(=O)O/N=C/c2ccccn2)cc1OC and tell me its recorded viability at 75 µM on Hepatitis B virus.
Output line: 104

Input line: Please look at COc1cc(/C=C/C(=O)O/N=C/c2ccco2)cc2c1OCO2 and tell me its recorded viability at 75 µM on Hepatitis B virus.
Output line: 95.4

Input line: Please look at COc1cc(/C=C/C(=O)O/N=C/c2cccs2)cc(OC)c1OC and tell me its recorded viability at 75 µM on Hepatitis B virus.
Output line: 93.4

Input line: Please look at Nc1ccn([C@@H]2CS[C@H](CO)O2)c(=O)n1 and tell me its recorded viability at 75 µM on Hepatitis B virus.
Output line: 95.9

Input line: Please look at COc1cc(/C=C/C(=O)O/N=C/c2ccco2)cc(OC)c1OC and tell me its recorded viability at 75 µM on Hepatitis B virus.
Output line: 127

Input line: Please look at O=C(/C=C/c1ccc2c(c1)OCO2)O/N=C/c1ccccn1 and tell me its recorded viability at 75 µM on Hepatitis B virus.
Output line: 72.9

Input line: Please look at O=C(/C=C/c1ccc2c(c1)OCO2)O/N=C/c1ccco1 and tell me its recorded viability at 75 µM on Hepatitis B virus.
Output line: 85.5
